FYI, the data here is from patent US20150164899A1.

target: AAK1 (full-length human protein) (Homo sapiens); construct: NP_055726.2; experiment: P81 filter plate assay; type: biochemical; settings: pyrazolo[1,5-a]pyrimidine-based inhibitors
Sequence (Q2M2I8 1-863 isoform Q2M2I8-2): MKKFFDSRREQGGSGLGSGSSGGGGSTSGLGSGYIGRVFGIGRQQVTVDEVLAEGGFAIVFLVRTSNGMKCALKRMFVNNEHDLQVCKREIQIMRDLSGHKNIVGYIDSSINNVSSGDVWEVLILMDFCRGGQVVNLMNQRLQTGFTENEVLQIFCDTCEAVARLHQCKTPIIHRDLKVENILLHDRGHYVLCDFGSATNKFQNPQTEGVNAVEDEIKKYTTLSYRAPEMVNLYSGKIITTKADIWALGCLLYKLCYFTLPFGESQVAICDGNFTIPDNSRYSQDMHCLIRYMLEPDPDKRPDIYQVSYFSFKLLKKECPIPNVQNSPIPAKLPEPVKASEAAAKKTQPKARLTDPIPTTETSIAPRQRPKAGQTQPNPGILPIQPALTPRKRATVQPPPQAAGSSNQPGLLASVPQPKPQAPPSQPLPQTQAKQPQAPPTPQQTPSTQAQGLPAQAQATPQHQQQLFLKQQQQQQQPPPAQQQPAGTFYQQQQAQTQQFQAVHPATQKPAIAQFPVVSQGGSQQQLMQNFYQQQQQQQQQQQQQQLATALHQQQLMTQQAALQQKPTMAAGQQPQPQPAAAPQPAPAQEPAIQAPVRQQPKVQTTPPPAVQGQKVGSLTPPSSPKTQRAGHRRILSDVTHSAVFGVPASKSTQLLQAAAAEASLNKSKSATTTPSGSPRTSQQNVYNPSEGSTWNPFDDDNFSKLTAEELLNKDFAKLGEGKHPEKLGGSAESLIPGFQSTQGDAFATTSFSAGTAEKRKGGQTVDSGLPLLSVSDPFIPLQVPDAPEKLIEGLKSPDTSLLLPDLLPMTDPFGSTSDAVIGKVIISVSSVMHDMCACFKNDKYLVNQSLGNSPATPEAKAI
pIC50: −log10 of the molar value.

GIVEN_SMILES	STUDY_TARGET	pIC50
CC(C)OC(=O)N1CCN(c2ccn3ncc(-c4cccnc4O)c3n2)CC1	AAK1 (full-length human protein) (Homo sapiens)	≥ 8.00
COc1ncccc1-c1cnn2ccc(N3CCN(C(=O)OC4CCCC4)CC3)nc12	AAK1 (full-length human protein) (Homo sapiens)	≥ 8.00
CC(C)OC(=O)N1CCN(c2ccn3ncc(-c4cnccn4)c3n2)CC1	AAK1 (full-length human protein) (Homo sapiens)	≥ 7.00
COc1ccccc1-c1cnn2ccc(N3CC[C@H](N(C)C(=O)OC(C)(C)C)C3)nc12	AAK1 (full-length human protein) (Homo sapiens)	≥ 8.00
CCCC(=O)N1CCC[C@H]1CNc1ccn2ncc(-c3ccccc3OC)c2n1	AAK1 (full-length human protein) (Homo sapiens)	≥ 8.00

---

biological target: AAK1 (full length human) in transfected HEK293F cells (Homo sapiens, UniProt Q2M2I8); construct: expressed in transfected cells; host or cells: HEK293F; test: HEK281 cell-based assay (phospho-mu2 Western blot); details: HEK281 cell-based assay, Table 1 imidazo[1,2-b]pyridazines; read-out: CBA IC50
QUANTITY_MEASURED: IC50

GIVEN_SMILES	RESULT_VALUE
CC(C)CNC(=O)c1cncc(-c2ccc3ncc(-c4ccc(CN)cc4)n3n2)c1	≤ 0.1 µM
NCc1ccc(-c2cnc3ccc(NCC4CCCCC4)nn23)cc1	≤ 1 µM
CCCCNc1ccc2ncc(-c3ccc(CN)c(F)c3)n2n1	≤ 1 µM
CC(C)CCC(=O)c1cccc(-c2ccc3ncc(-c4ccc(CN)cc4)n3n2)c1	≤ 0.1 µM
CNC(=O)c1ccc(-c2cnc3ccc(-c4cccc(C(=O)NCC(C)C)c4)nn23)cc1	≤ 0.1 µM
CCCCSc1ccc2ncc(-c3ccc(CN)cc3)n2n1	≤ 1 µM
COc1cccc(CCNc2ccc3ncc(-c4ccc(C(N)=O)cc4)n3n2)c1	≤ 0.1 µM
CN(CCNc1ccc2ncc(-c3ccc(C#N)cc3)n2n1)C(=O)OC(C)(C)C	≤ 0.1 µM
COc1cnccc1-c1cnc2ccc(-c3cccc(C(=O)CCC(C)C)c3)nn12	≤ 0.1 µM
CN(C)CCOCc1ccc(-c2cnc3ccc(NCCC(C)(C)C)nn23)cc1	≤ 0.1 µM
COc1ccccc1-c1cnc2ccc(NC[C@@H]3CCC(=O)N3CCC(C)(C)C)nn12	≤ 1 µM
CC(C)(C)OCCNc1ccc2ncc(-c3ccc(C(N)=O)cc3)n2n1	≤ 0.1 µM
CC(=O)c1cccc(-c2ccc3ncc(-c4ccc(CN)cc4)n3n2)c1	≤ 0.1 µM
CC(C)(C)OC(=O)N1CCC[C@H]1CCNc1ccc2ncc(-c3ccc(CN)cc3)n2n1	≤ 0.1 µM
CC(C)OC(=O)N1CCC[C@H]1CNc1ccc2ncc(Cl)n2n1	≤ 0.1 µM
CC(C)CNC(=O)c1cccc(-c2ccc3ncc(-c4ccc(CN)cc4)n3n2)c1	≤ 0.1 µM
CN(C(=O)CC(C)(C)C)[C@H]1CCN(c2ccc3ncc(-c4cccnc4O)n3n2)C1	≤ 1 µM
CN(CCNc1ccc2ncc(-c3ccccc3)n2n1)C(=O)OC(C)(C)C	≤ 0.1 µM
COc1cnccc1-c1cnc2ccc(-c3cccc(C(=O)NCC(C)C)c3)nn12	≤ 0.1 µM
CC(C)NC(=O)N1CCN(c2ccc3ncc(-c4ccccc4)n3n2)CC1	≤ 0.1 µM
CCCCNc1ccc2ncc(C(=O)Nc3ccc(C(=O)NCCN(C)C)cc3)n2n1	≤ 0.1 µM

---

Biological target: AAK1 (full-length human protein) (Homo sapiens)
Construct: NP_055726.2
Test: P81 filter plate assay
Assay type: biochemical
Conditions: Table 1 imidazo[1,2-b]pyridazines
Procedure: Compounds were serially diluted into a Labcyte LDV plate (Labcyte, cat# LP-0200) using a Mutiprobe (PerkinElmer) and Biomek FX (Beckman Coulter) so that the highest compound concentration was at 96 μM. […] The bottom of each filter plate was sealed followed by addition of 20 μl Microscint 40 to each well, sealing the top of the plates with Flashplate cover, and then waiting one hour until reading on the TopCount (PerkinElmer).
pIC50: −log10 of the molar value.
QUANTITY_MEASURED: pIC50

GIVEN_SMILES	RESULT_VALUE
CN(C(=O)CC(C)(C)C)[C@H]1CCN(c2ccc3ncc(-c4cccnc4O)n3n2)C1	≥ 7.00
CN(C(=O)N1CCCC1)[C@H]1CCN(c2ccc3ncc(-c4ccccn4)n3n2)C1	≥ 7.00
COc1ccccc1-c1cnc2ccc(NC[C@@H]3CCC(=O)N3CCC(C)(C)C)nn12	≥ 8.00

---

target: GST-Xa-hAAK1 (Homo sapiens, UniProt Q2M2I8); construct: made in house; assay: Caliper assay; assay type: biochemical; conditions: aryl ethers, class symbols
Sequence (Q2M2I8 whole entry): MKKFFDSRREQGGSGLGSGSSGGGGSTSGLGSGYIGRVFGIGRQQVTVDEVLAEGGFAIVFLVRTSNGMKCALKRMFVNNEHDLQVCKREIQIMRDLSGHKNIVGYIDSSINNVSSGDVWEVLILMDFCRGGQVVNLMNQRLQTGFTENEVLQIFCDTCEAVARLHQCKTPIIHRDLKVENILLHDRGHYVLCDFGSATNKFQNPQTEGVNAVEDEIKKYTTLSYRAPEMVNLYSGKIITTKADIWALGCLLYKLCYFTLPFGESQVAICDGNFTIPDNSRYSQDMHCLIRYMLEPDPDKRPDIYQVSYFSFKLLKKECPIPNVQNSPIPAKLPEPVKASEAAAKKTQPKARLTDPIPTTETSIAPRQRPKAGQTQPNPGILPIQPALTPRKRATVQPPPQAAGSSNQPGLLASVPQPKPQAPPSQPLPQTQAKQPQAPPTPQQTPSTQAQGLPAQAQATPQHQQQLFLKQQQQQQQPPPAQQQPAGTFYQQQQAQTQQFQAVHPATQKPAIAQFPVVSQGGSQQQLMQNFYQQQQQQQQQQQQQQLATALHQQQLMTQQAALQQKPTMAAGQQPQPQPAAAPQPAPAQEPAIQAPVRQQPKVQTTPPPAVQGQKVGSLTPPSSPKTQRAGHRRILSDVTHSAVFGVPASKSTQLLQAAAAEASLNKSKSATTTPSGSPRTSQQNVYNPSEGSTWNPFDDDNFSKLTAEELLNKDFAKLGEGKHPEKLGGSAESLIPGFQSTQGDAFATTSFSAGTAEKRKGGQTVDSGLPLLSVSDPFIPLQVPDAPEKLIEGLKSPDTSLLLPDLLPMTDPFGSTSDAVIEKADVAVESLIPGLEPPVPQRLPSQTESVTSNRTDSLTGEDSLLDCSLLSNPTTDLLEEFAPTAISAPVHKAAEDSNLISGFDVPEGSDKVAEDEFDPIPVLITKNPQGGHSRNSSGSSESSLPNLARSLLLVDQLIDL
pIC50: −log10 of the molar value.
As shown below, each of these compounds has a reported pIC50 value.
QUANTITY_MEASURED: pIC50

COMPOUND	STUDY_TARGET	QUANTITY_MEASURED	RESULT_VALUE
CC(C)C[C@H](N)COc1ccc2c(c1)OCc1cnc(N)cc1-2	GST-Xa-hAAK1 (Homo sapiens, UniProt Q2M2I8)	pIC50	8.00 to 9.00
CC(C)C[C@H](N)COc1ccc2c(c1)OC(C1CC1)c1cnccc1-2 (stereo partly shown) [drawing 36]	GST-Xa-hAAK1 (Homo sapiens, UniProt Q2M2I8)	pIC50	6.00 to 7.00
CCc1cc2c(cc1OC[C@@H](N)CC(C)C)OC(CC)c1cnccc1-2 (stereo partly shown)	GST-Xa-hAAK1 (Homo sapiens, UniProt Q2M2I8)	pIC50	7.00 to 8.00
CC(C)C[C@H](N)COc1ccc2c(c1)OC(C)c1cnccc1-2 (stereo partly shown) [drawing 31]	GST-Xa-hAAK1 (Homo sapiens, UniProt Q2M2I8)	pIC50	7.00 to 8.00
CC(C)C[C@@H](N)COc1ccc2c(c1)OCc1cnccc1-2 [drawing 25]	GST-Xa-hAAK1 (Homo sapiens, UniProt Q2M2I8)	pIC50	7.00 to 8.00
CC(C)C[C@H](N)COc1ccc2c(c1)OC(C1CC1)c1cnccc1-2 (stereo partly shown) [drawing 37]	GST-Xa-hAAK1 (Homo sapiens, UniProt Q2M2I8)	pIC50	8.00 to 9.00
CC(C)C[C@@H](N)COc1ccc2c(c1)OC(C)c1cnccc1-2 (stereo partly shown)	GST-Xa-hAAK1 (Homo sapiens, UniProt Q2M2I8)	pIC50	7.00 to 8.00

---

molecular target: AAK1 (full length human) in transfected HEK293F cells (Homo sapiens); construct: expressed in transfected cells; host or cells: HEK293F; test: HEK281 cell-based assay (phospho-mu2 Western blot); conditions: HEK281 cell-based assay; pyrazolo[1,5-a]pyrimidine-based inhibitors; read-out: CBA IC50
As shown below, each of these compounds has a reported IC50 value.
QUANTITY_MEASURED: IC50

COMPOUND	RESULT_VALUE
CC(C)(C)OC(=O)N1CCC[C@H]1CNc1ccn2ncc(-c3ccccc3)c2n1	≤ 100 nM
COc1ncccc1-c1cnn2ccc(N3CCN(C(=O)NC(C)(C)C)CC3)nc12	≤ 100 nM
COc1ccncc1-c1cnn2ccc(NCCc3ccccc3OC(F)(F)F)nc12	≤ 100 nM
COCCNc1ccn2ncc(-c3ccc(CN)cc3)c2n1	≤ 100 nM
CCOC(=O)N1CCN(c2ccn3ncc(-c4cccnc4OCC)c3n2)CC1	≤ 10 nM
CCCCNc1ccn2ncc(-c3ccc(C(=O)NCCNC)cc3)c2n1	≤ 100 nM
COCCNc1ccn2ncc(-c3ccc(C(=O)NCCN)cc3)c2n1	≤ 1000 nM
COc1ccncc1-c1cnn2ccc(NCCN(C)C(=O)OC(C)C)nc12	≤ 100 nM
COc1ccccc1-c1cnn2ccc(NC[C@@H]3CCCN3C(=O)CC(C)(C)C)nc12	≤ 10 nM
COc1cnccc1-c1cnn2ccc(NCCN(C)C(=O)OC(C)(C)C)nc12	≤ 10 nM
O=C(CC(F)(F)F)N1CCC[C@H]1CNc1ccn2ncc(-c3ccncc3)c2n1	≤ 100 nM
NCc1ccc(-c2cnn3ccc(NCCCOC4CCCC4)nc23)cc1	≤ 100 nM
COc1ccccc1-c1cnn2ccc(NC[C@@H]3CCCN3C(=O)CC(F)(F)F)nc12	≤ 100 nM
CC(C)(C)COCCNc1ccn2ncc(-c3ccc(CN)cc3)c2n1	≤ 100 nM
COc1cc(-c2cnn3ccc(N4CCN(C(=O)OC(C)C)CC4)nc23)c(OC)nn1	≤ 10 nM
COc1nc(C)ccc1-c1cnn2ccc(N3CCN(C(=O)OC(C)C)CC3)nc12	≤ 100 nM
CC(C)OC(=O)N1CCN(c2ccn3ncc(-c4ccncc4)c3n2)CC1	≤ 100 nM
COc1ncccc1-c1cnn2ccc(NC[C@@H]3CCC(=O)N3CCC(C)(C)C)nc12	≤ 100 nM
CC(C)OC(=O)N(C)CCNc1ccn2ncc(-c3ccc(C4CCCN4)cc3)c2n1 (stereo not drawn)	≤ 10 nM
CCCC(=O)N1CCC[C@H]1CNc1ccn2ncc(-c3ccccc3OC)c2n1	≤ 100 nM
CCOc1ccccc1-c1cnn2ccc(NC[C@@H]3CCC(=O)N3CCC(C)(C)C)nc12	≤ 100 nM
CC(C)(C)OC(=O)N1CCC[C@H]1CNc1ccn2ncc(I)c2n1	≤ 100 nM
CC(C)OC(=O)N1CCN(c2ccn3ncc(-c4ccccn4)c3n2)CC1	≤ 100 nM
CCCCNc1ccn2ncc(-c3ccc(CN)cc3)c2n1	≤ 100 nM
CNCCNC(=O)c1ccc(-c2cnn3ccc(NCCN(C)C(=O)OC(C)C)nc23)cc1	≤ 100 nM
CNC(=O)c1ccc(-c2cnn3ccc(NCCN(C)C(=O)OCC(C)C)nc23)cc1	≤ 1000 nM
COCCNc1ccn2ncc(-c3ccc(C(=O)NCCNC(=O)OC(C)(C)C)cc3)c2n1	≤ 1000 nM
COc1ncccc1-c1cnn2ccc(N3CC[C@H](N(C)C(=O)CC(F)(F)F)C3)nc12	≤ 10 nM
COc1cnccc1-c1cnn2ccc(NCCCOC3CCCC3)nc12	≤ 100 nM
COC(=O)N1CCN(c2ccn3ncc(-c4cccnc4OC)c3n2)CC1	≤ 100 nM
COc1ncccc1-c1cnn2ccc(N3CCN(C(=O)CC(C)C)CC3)nc12	≤ 100 nM
COc1ncc(F)cc1-c1cnn2ccc(N3CCN(C(=O)OC(C)C)CC3)nc12	≤ 100 nM
COc1cnccc1-c1cnn2ccc(NCCOC(C)(C)C)nc12	≤ 100 nM
COc1ncccc1-c1cnn2ccc(C3=CCN(C(=O)OC(C)C)CC3)nc12	≤ 10 nM
COc1ccc(-c2cnn3ccc(N4CCN(C(=O)OC(C)C)CC4)nc23)nc1	≤ 10 nM
COc1ncccc1-c1cnn2ccc(N3CCN(C(=O)N4CCCC4)CC3)nc12	≤ 100 nM
COc1cnccc1-c1cnn2ccc(NCCN(C)C(=O)OC(C)C)nc12	≤ 10 nM
COc1ccccc1-c1cnn2ccc(N3CC[C@H](N(C)C(=O)OC(C)(C)C)C3)nc12	≤ 100 nM
CCCC(=O)N(C)[C@H]1CCN(c2ccn3ncc(-c4cccnc4OC)c3n2)C1	≤ 1000 nM
COc1ccccc1-c1cnn2ccc(NC[C@@H]3CCCN3C(=O)NC(C)(C)C)nc12	≤ 100 nM
NCc1ccc(-c2cnn3ccc(NCCOC4CCCC4)nc23)cc1	≤ 100 nM
COc1cncc(-c2cnn3ccc(N4CCN(C(=O)OC(C)C)CC4)nc23)c1	≤ 100 nM
